# Tested on: Aβ plaques in 5xFAD mice brain sections (Homo sapiens)
# Construct: aggregated Aβ species were commonly observed in brain sections from 5xFAD transgenic mice; tissue Jackson Laboratories; host or cells: brain sections of 9-month-old 5xFAD transgenic mice
# Sequence (P05067 672-713 limits assumed): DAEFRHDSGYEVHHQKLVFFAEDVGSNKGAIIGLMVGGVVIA
# Protocol summary: Fluorescence imaging of 5xFAD mouse brain sections, colocalization with Congo Red
# Run conditions: 9-month-old 5xFAD brain sections; compound 5 μM, Congo red 2.5 μM
Endpoint name: Pearson's correlation coefficient R, colocalization with Congo Red

{"Structure as smiles": "COc1cc(OC)cc(-c2ccc(/C=C/c3cc(CN4CCN(C)CCN(C)CC4)c(O)c(CN4CCN(C)CCN(C)CC4)c3)cc2)c1", "Number": 0.77}
{"Structure as smiles": "COc1cc(/C=C/c2ccc(-c3ccc(C=O)cc3)s2)cc(CN2CCN(C)CCN(C)CC2)c1O", "Number": 0.77}
{"Structure as smiles": "COc1cc(-c2ccc(/C=C/c3ccc(N(C)C)cc3)s2)cc(CN2CCN(C)CCN(C)CC2)c1O", "Number": 0.77}
{"Structure as smiles": "CN1CCN(C)CCN(Cc2cc(-c3ccc(/C=C/c4ccc(N(C)C)cc4)s3)cc(CN3CCN(C)CCN(C)CC3)c2O)CC1", "Number": 0.52}
{"Structure as smiles": "COc1cc(OC)cc(-c2ccc(/C=C/c3cc(CN4CCN(C)CCN(C)CC4)c(O)c(OC)c3)cc2)c1", "Number": 0.72}
{"Structure as smiles": "CN1CCN(C)CCN(Cc2cc(/C=C/c3ccc(-c4ccc(N(C)C)cc4)s3)ccc2O)CC1", "Number": 0.84}
